In this section, each of the binders is paired with its reported pKd.
Molecular target: biotinylated human DLL3 protein expressed as a human IgG1 fusion protein (human) (UniProt Q9NYJ7)
Sequence (Q9NYJ7 other isoform, or with tags, fused parts or gaps): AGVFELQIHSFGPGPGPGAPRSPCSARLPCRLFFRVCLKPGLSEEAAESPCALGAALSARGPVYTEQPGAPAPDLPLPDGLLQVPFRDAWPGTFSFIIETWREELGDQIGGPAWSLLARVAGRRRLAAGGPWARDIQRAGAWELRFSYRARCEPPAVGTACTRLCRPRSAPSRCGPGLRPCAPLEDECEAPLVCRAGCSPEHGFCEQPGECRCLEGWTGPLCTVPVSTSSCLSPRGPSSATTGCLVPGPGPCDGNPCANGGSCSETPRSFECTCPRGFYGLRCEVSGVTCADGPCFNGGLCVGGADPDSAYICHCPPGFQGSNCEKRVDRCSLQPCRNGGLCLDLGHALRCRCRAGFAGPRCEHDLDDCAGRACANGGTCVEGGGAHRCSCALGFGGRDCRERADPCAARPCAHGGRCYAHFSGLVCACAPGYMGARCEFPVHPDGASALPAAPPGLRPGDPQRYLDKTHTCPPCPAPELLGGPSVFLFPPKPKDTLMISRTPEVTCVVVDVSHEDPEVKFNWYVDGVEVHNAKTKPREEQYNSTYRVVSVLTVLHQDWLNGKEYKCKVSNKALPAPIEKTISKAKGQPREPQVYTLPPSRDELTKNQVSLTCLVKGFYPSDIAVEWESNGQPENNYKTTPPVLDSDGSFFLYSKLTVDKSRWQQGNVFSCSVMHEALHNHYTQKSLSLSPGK
Experiment: Octet BLI; biotinylated huDLL3-IgG1 fusion on streptavidin tips; single 50 nM; conditioned medium
pKd: −log10 of the molar value.
measured_endpoint: pKd

[[record]]
binder = "anti-DLL3 trispecific protein 4B09 (protein, part only; not given: anti-CD3 fragment and anti-albumin sdAb, part only) chain, part: EVQLVESGGGLVQPGGSLTLSCAASGSSVSFLSMAWYRQAPGKKRELVAGISADGSTDYISSVKGRFTISRDNAKNSVYLQMNSLRAEDTAVYYCYAYSWTTRYTYWGQGTLVTVSSGGGGSGGGSGGGGSGGGSHHHHHH"
measured_endpoint = "pKd"
recorded_measurement = 8.27

[[record]]
binder = "anti-DLL3 trispecific protein 3C09 (protein, part only; not given: anti-CD3 and anti-albumin domains, part only) chain, part: EVQLVESGGGLVQPGGSLTLSCAASGSSVSFLSMAWYRQAPGKKRELVAGISADGSTIYIDSVKGRFTISRDNAKNSVYLQMNSLRAEDTAVYYCYAYRWRTRYTYWGQGTLVTVSSGGGGSGGGSGGGGSGGGSHHHHHH"
measured_endpoint = "pKd"
recorded_measurement = 8.11

[[record]]
binder = "anti-DLL3 trispecific protein 3F010 (protein, part only; not given: CD3 fragment and albumin sdAb, part only) chain, part: EVQLVESGGGLVQPGGSLTLSCAASYSSVSRLSMAWYRQAPGKKRELVAGISADGSTVYIDSVKGRFTISRDNAKNSVYLQMNSLRAEDTAVYYCYAYRWTTRNTYWGQGTLVTVSSGGGGSGGGSGGGGSGGGSHHHHHH"
measured_endpoint = "pKd"
recorded_measurement = 8.36

[[record]]
binder = "anti-DLL3 trispecific protein 4A011 (protein, part only; not given: CD3 binder and albumin binder, part only) chain, part: EVQLVESGGGLVQPGGSLTLSCAASGSKVSFLSMAWYRQAPGKKRELVAGISADGSTTYIDSVKGRFTISRDNAKNSVYLQMNSLRAEDTAVYYCYAYRWKTRYTYWGQGTLVTVSSGGGGSGGGSGGGGSGGGSHHHHHH"
measured_endpoint = "pKd"
recorded_measurement = 8.25

[[record]]
binder = "anti-DLL3 trispecific protein 1C07 (protein, part only; not given: anti-CD3 fragment and anti-albumin sdAb, part only) chain, part: EVQLVESGGGLVQPGGSLTLSCVASGSTSSINAMAWYRRAPGKQRELVAGISSDGSKVYADSVKGRFTISRDNAKNSVYLQMNSLRAEDTAVYYCYYFRTVSGSSMRYWGQGTLVTVSSGGGGSGGGSGGGGSGGGSHHHHHH"
measured_endpoint = "pKd"
recorded_measurement = 8.15

[[record]]
binder = "anti-DLL3 trispecific protein 1A05 (protein, part only; not given: CD3 fragment and albumin sdAb, part only) chain, part: EVQLVESGGGLVQPGGSLTLSCVASGSPSSINAMGWYRRAPGKQRELSAGISSDGSKVYADSVKGRFTISRDNAKNSVYLQMNSLRAEDTAVYYCYYFRTVRGSSMSYWGQGTLVTVSSGGGGSGGGSGGGGSGGGSHHHHHH"
measured_endpoint = "pKd"
recorded_measurement = 8.40

[[record]]
binder = "anti-DLL3 trispecific protein 3G04 (protein, part only; not given: CD3 binder and albumin binder, part only) chain, part: EVQLVESGGGLVQPGGSLTLSCVASGTSVSFLSMAWYRQAPGKKRELVAGISADGSTIYIDSVKGRFTISRDNAKNSVYLQMNSLRAEDTAVYYCYAYRWTTRRTYWGQGTLVTVSSGGGGSGGGSGGGGSGGGSHHHHHH"
measured_endpoint = "pKd"
recorded_measurement = 8.06

[[record]]
binder = "anti-DLL3 trispecific protein 4D06 (protein, part only; not given: anti-CD3 fragment and anti-albumin sdAb, part only) chain, part: EVQLVESGGGLVQPGGSLTLSCAASGSSVKFLSMAWYRQAPGKKRELVAGISPDGSTDYIDSVKGRFTISRDNAKNSVYLQMNSLRAEDTAVYYCYAYRWTTRYRYWGQGTLVTVSSGGGGSGGGSGGGGSGGGSHHHHHH"
measured_endpoint = "pKd"
recorded_measurement = 8.12

[[record]]
binder = "anti-DLL3 trispecific protein 1E02 (protein, part only; not given: anti-CD3 fragment and anti-albumin sdAb, part only) chain, part: EVQLVESGGGLVQPGGSLTLSCVASGQTSSINAMGWYRRAPGKQRELVAGISSDGSQVYADSVKGRFTISRDNAKNSVYLQMNSLRAEDTAVYYCYYFRTKSGSSMRYWGQGTLVTVSSGGGGSGGGSGGGGSGGGSHHHHHH"
measured_endpoint = "pKd"
recorded_measurement = 8.15

[[record]]
binder = "anti-DLL3 trispecific protein 1B05 (protein, part only; not given: CD3 binder and albumin binder, part only) chain, part: EVQLVESGGGLVQPGGSLTLSCVASGSTSSINAMAWYRRAPGKQRELVAGISSDGSKVYADSVKGRFTISRDNAKNSVYLQMNSLRAEDTAVYYCYYYRTVSGSSMRYWGQGTLVTVSSGGGGSGGGSGGGGSGGGSHHHHHH"
measured_endpoint = "pKd"
recorded_measurement = 8.10

[[record]]
binder = "anti-DLL3 trispecific protein 1A011 (protein, part only; not given: anti-CD3 and anti-albumin domains, part only) chain, part: EVQLVESGGGLVQPGGSLTLSCVASGSTSSINAIGWYRRAPGKQRELVAGISSDGSKVYIDSVKGRFTISRDNAKNSVYLQMNSLRAEDTAVYYCYYFRTVSGSSYRYWGQGTLVTVSSGGGGSGGGSGGGGSGGGSHHHHHH"
measured_endpoint = "pKd"
recorded_measurement = 8.43

[[record]]
binder = "anti-DLL3 trispecific protein 1B011 (protein, part only; not given: CD3 binder and albumin binder, part only) chain, part: EVQLVESGGGLVQPGGSLTLSCVASGSTSRINAMGWYRRAPGKQRELVAGISSDGSKVYADSVKGRFTISRDNAKNSVYLQMNSLRAEDTAVYYCYYFRTVYGSSMRYWGQGTLVTVSSGGGGSGGGSGGGGSGGGSHHHHHH"
measured_endpoint = "pKd"
recorded_measurement = 8.24

[[record]]
binder = "anti-DLL3 trispecific protein 3D07 (protein, part only; not given: anti-CD3 and anti-albumin domains, part only) chain, part: EVQLVESGGGLVQPGGSLTLSCAASGSSVRFLSMAWYRQAPGKKRELVAGISADGSTDYIDSVKGRFTISRDNAKNSVYLQMNSLRAEDTAVYYCYAYSWTTRYTYWGQGTLVTVSSGGGGSGGGSGGGGSGGGSHHHHHH"
measured_endpoint = "pKd"
recorded_measurement = 8.23

[[record]]
binder = "anti-DLL3 trispecific protein 2D07 (protein, part only; not given: anti-CD3 fragment and anti-albumin sdAb, part only) chain, part: EVQLVESGGGLVQPGGSLTLSCVASGSTSSINAVGWYRRAPGKQRELVAGISSDGTKVYRDSVKGRFTISRDNAKNSVYLQMNSLRAEDTAVYYCYYFRTVQGSSMRYWGQGTLVTVSSGGGGSGGGSGGGGSGGGSHHHHHH"
measured_endpoint = "pKd"
recorded_measurement = 8.22


The measurements presented in this section are drawn from patent US20200095340A1.
